Source of measurements: patent US20170022171A1

The next entries give measured IC50 for MMP-7 (Homo sapiens, UniProt P09237).
Entry rule: numbers only, all in µM.

COMPOUND | RESULT_UNIT | ENDPOINT_VALUE
Cc1cccc(COc2ccc(C(=O)[C@H]3CC[C@@H](Cn4nnc5ccc(C(F)(F)F)cc5c4=O)[C@@H]3C(=O)O)cc2)c1 (racemic) | µM | 0.12
O=C(O)[C@@H]1[C@@H](Cn2nnc3ccc(C(F)(F)F)cc3c2=O)CC[C@H]1C(=O)c1ccc(OCCC2CCCCC2)cc1 (single isomer, unassigned) | µM | 0.34
Cc1cccc(COc2ccc(C(=O)[C@H]3CC[C@@H](Cn4nnc5ccc(C)cc5c4=O)[C@@H]3C(=O)O)cc2)c1 (racemic) | µM | 1.5

I'd like to know its IC50. The compound in question is O=C(O)[C@H]1[C@H](Cn2nnc3ccc(C(F)(F)F)cc3c2=O)CC[C@@H]1C(=O)c1ccc(OCc2cccc(C(F)(F)F)c2)cc1 (racemic)
0.91

----------
Reported IC50 values are given for each entry in this list.
biological target: human macrophage elastase (HME/hMMP-12) (Homo sapiens, UniProt P39900); construct: 0.5 nM HME; test: In vitro HME inhibition test (standard or high-sensitivity); conditions: in some cases mean values
Sequence (P39900 106-470): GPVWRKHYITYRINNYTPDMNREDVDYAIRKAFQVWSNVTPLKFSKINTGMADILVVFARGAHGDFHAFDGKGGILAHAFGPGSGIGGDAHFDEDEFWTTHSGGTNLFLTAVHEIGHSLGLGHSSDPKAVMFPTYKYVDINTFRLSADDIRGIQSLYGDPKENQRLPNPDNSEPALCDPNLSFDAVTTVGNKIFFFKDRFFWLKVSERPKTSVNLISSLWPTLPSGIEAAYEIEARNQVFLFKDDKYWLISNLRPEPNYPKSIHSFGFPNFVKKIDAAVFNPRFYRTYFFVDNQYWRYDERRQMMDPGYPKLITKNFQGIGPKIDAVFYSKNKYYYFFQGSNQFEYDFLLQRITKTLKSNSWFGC
Entry rule: numbers only, all in nM.

COMPOUND | IC50 (nM)
Cc1ccc2nnn(C[C@@H]3CC[C@H](C(=O)c4ccc(OCC5CCCCC5)cc4)[C@H]3C(=O)O)c(=O)c2c1 (racemic) | 0.093
Cc1cccc(COc2ccc(C(=O)[C@@H]3CC[C@H](Cn4nnc5ccc(C)cc5c4=O)[C@H]3C(=O)O)cc2)c1 (single isomer, unassigned) [Example 98] | 0.1

I'd like to know its IC50. The compound in question is CCCCCOc1ccc(C(=O)[C@H]2CC[C@@H](Cn3nnc4ccc(C)cc4c3=O)[C@@H]2C(=O)O)cc1 (racemic)
0.088

----------
Target protein (sequence): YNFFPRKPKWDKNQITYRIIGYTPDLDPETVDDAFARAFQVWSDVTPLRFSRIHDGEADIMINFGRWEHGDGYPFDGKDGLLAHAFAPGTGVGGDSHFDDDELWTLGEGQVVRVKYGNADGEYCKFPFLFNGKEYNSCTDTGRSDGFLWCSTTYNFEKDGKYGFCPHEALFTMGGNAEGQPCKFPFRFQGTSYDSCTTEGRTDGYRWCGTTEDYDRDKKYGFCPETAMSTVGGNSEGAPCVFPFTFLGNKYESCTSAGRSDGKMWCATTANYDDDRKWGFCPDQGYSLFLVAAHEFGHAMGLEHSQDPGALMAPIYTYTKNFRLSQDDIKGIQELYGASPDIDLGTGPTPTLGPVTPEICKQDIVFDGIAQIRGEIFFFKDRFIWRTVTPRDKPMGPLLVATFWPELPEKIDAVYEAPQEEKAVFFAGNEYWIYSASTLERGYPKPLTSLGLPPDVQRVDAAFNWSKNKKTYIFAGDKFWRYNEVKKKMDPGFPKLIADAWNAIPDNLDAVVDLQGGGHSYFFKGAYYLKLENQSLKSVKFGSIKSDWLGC
MEASURED_ATTRIBUTE: pIC50
Notebook: values listed as pIC50 are -log10 of the concentration (mol/L).

MOLECULE | pIC50
CCCCCSc1ccc(C(=O)[C@H]2CC[C@@H](Cn3nnc4ccc(C(F)(F)F)cc4c3=O)[C@@H]2C(=O)O)cc1 (racemic) | 6.72

I'd like to know its pIC50. The molecule in question is COC(=O)Nc1cccc(COc2ccc(C(=O)[C@@H]3CC[C@H](Cn4nnc5ccc(C(F)(F)F)cc5c4=O)[C@H]3C(=O)O)cc2)c1 (stereo in doubt)
6.08

Further, for CCCCCCOc1ccc(C(=O)[C@@H]2CC[C@H](Cn3nnc4ccc(C(F)(F)F)cc4c3=O)[C@H]2C(=O)O)cc1 (single isomer, unassigned) ?
6.24

Further, for Cc1ccc2nnn(C[C@@H]3CC[C@H](C(=O)c4ccc(OCc5cccc(Cl)c5)cc4)[C@H]3C(=O)O)c(=O)c2c1 (racemic) ?
6.43
